Values compiled from ChEMBL document CHEMBL5614459.

assay-notes: Cytotoxicity against human HepDE19 cells by CellTiter-Glo assay
Format: toxicity, cell-based
quantity-measured: CC50

// each molecule listed below needs its CC50
1. CN(C(=O)Nc1ccc(F)c(Cl)c1)C1CCCc2[nH]c(=O)c3c(F)c(F)ccc3c21 (racemic)
2. CN(C(=O)Nc1ccc(F)c(Cl)c1)C1CCCc2[nH]c(=O)c3cc(F)c(F)cc3c21 (racemic)
3. CN(C(=O)Nc1ccc(F)c(C#N)c1)[C@@H]1COCc2[nH]c(=O)c3cc(F)c(F)cc3c21
4. CN(C(=O)Nc1ccc(F)c(Cl)c1)C1CCCc2[nH]c(=O)c3cc(F)cc(F)c3c21 (racemic)
5. CN(C(=O)Nc1ccc(F)c(Cl)c1)C1CCc2[nH]c(=O)c3ccccc3c21 (racemic)
6. CC(C)CN(C(=O)Nc1ccc(F)c(Cl)c1)C1CCCc2[nH]c(=O)c3ccccc3c21 (racemic)
7. CN(C(=O)c1cc2cc(F)c(F)c(F)c2[nH]1)[C@@H]1COCc2[nH]c(=O)c3cc(F)c(F)cc3c21
8. CN(C(=O)Nc1ccc(F)c(Cl)c1)[C@@H]1CCc2[nH]c(=O)c3ccccc3c21

["> 10 µM", "> 10 µM", "> 10 µM", "> 10 µM", "> 10 µM", "> 10 µM", "> 10 µM", "> 10 µM"]

Below are 4 molecules. Give each one its CC50.
1. CN(C(=O)Nc1ccc(F)c(C(F)F)c1)[C@@H]1COCc2[nH]c(=O)c3cc(F)c(F)cc3c21
2. CN(C(=O)c1cc2cc(F)ccc2[nH]1)[C@@H]1COCc2[nH]c(=O)c3cc(F)c(F)cc3c21
3. CN(C(=O)Nc1ccc(F)c(Cl)c1)[C@@H]1COCc2[nH]c(=O)c3cc(F)c(F)cc3c21
4. CN(C(=O)Nc1ccc(F)c(Cl)c1)C1CCCc2[nH]c(=O)c3cc(F)ccc3c21 (racemic)

> 10 µM
> 10 µM
> 10 µM
> 10 µM

====

assay-notes: Intrinsic clearance in mouse liver microsomes
Type: ADME, Microsome
cond: read-out: CLH
Consider the following compounds; for each one, report its microsomal CLint.
Give bare numbers, in µL/min/mg.

| smiles-representation | recorded-number |
| --- | --- |
| CN(C(=O)c1cc2cc(F)ccc2[nH]1)[C@@H]1COCc2[nH]c(=O)c3cc(F)c(F)cc3c21 | 48 |
| CN(C(=O)c1cc2ccccc2[nH]1)[C@@H]1COCc2[nH]c(=O)c3cc(F)c(F)cc3c21 | 70 |
| CN(C(=O)c1cc2cc(F)c(F)c(F)c2[nH]1)[C@@H]1COCc2[nH]c(=O)c3cc(F)c(F)cc3c21 | 20 |

Let us examine a further case.
Any idea what its microsomal CLint is? The compound is CN(C(=O)Nc1ccc(F)c(Cl)c1)[C@@H]1COCc2[nH]c(=O)c3cc(F)c(F)cc3c21
27

====

assay-notes: Intrinsic clearance in human liver microsomes
Format: ADME, Microsome
cond: read-out: CLH
Outcome: Y for microsomal CLint of at least 80 µL/min/mg; N for anything lower.

| smiles-representation | class-name |
| --- | --- |
| CN(C(=O)c1cc2cc(F)ccc2[nH]1)[C@@H]1COCc2[nH]c(=O)c3cc(F)c(F)cc3c21 | Y |
| CN(C(=O)c1cc2ccc(F)cc2[nH]1)[C@@H]1COCc2[nH]c(=O)c3cc(F)c(F)cc3c21 | N |
| CN(C(=O)Nc1ccc(F)c(Cl)c1)[C@@H]1COCc2[nH]c(=O)c3cc(F)c(F)cc3c21 | N |
| CN(C(=O)Nc1ccc(F)c(Cl)c1)[C@@H]1CSCc2[nH]c(=O)c3cc(F)c(F)cc3c21 | Y |
| CN(C(=O)Nc1ccc(F)c(Cl)c1)[C@@H]1CNCc2[nH]c(=O)c3cc(F)c(F)cc3c21 | Y |
| CN(C(=O)c1cc2cc(F)c(F)c(F)c2[nH]1)[C@@H]1COCc2[nH]c(=O)c3cc(F)c(F)cc3c21 | N |
| CN(C(=O)c1cc2ccccc2[nH]1)[C@@H]1COCc2[nH]c(=O)c3cc(F)c(F)cc3c21 | Y |

Could you verify whether the entry CN(C(=O)c1cc2cc(F)c(F)cc2[nH]1)[C@@H]1COCc2[nH]c(=O)c3cc(F)c(F)cc3c21 shows microsomal CLint of no less than 80 µL/min/mg?
N
